- Test system: Scirpus juncoides
- measurement-description: Test Example 2: herbicidal effect test by treatment during growing period in paddy rice cultivation (seven days after seeding)
- Format: in vivo
- cond: 120 g/10a active ingredient, assessed 14 days after treatment, dry weight vs untreated area
Output 1 for Herbicidal rate (%) Scirpus juncoides not less than 90%; output -1 otherwise.

Completed entries (count: 4):
Asked: Decide: is the reported value of Herbicidal rate (%) Scirpus juncoides for CC(C)n1oc(=O)c(Cc2ccccc2NS(=O)(=O)C(F)(F)F)c1C1CC1 equal to or greater than 90%?
Given back: -1

Asked: Is the recorded value of Herbicidal rate (%) Scirpus juncoides equal to or greater than 90% for this compound? Cc1c(Cc2ccccc2NS(=O)(=O)C(F)(F)F)c(=O)on1CCCl
Given back: -1

Asked: Exam item: decide whether the reported Herbicidal rate (%) Scirpus juncoides for Cc1c(Cc2ccccc2NS(=O)(=O)C(F)(F)F)c(=O)on1C(C)c1ccc(Cl)cc1 (stereo not drawn) is at least 90%.
Given back: -1

Asked: Can Cc1c(Cc2ccccc2NS(=O)(=O)C(F)(F)F)c(=O)on1Cc1ccc(C(F)(F)F)cc1 be said to have Herbicidal rate (%) Scirpus juncoides at or above 90%?
Given back: -1

Next:
Asked: // inclusive: Herbicidal rate (%) Scirpus juncoides at least 90%? input: COC(=O)N(c1ccccc1Cc1c(C)n(C(C)C)oc1=O)S(=O)(=O)C(F)(F)F
Given back: 1
